Test system: DFO2036
Assay: qHTS profiling for inhibitors of Plasmodium falciparum proliferation (AID 504749); further: nearly all actives have a fitted effect of over 60% in size
Details: P. falciparum in erythrocytes, SYBR Green DNA, 72 h; series mostly up to 28.7 µM
Results filed as inconclusive are left out. Activity calls are given as the source filed them. The call rests on the fitted dose curve; in most records, active means well fitted inhibition curve with a large enough effect; inconclusive means small, poorly fitted or top-dose-only effect; inactive means flat fitted curve, though single readings scatter.
Bench note: report the call from T (active), F (inactive)

| compound | targetDesc | discreteLabel |
| --- | --- | --- |
| CCc1oc2ccccc2c1C(=O)c1cc(I)c(O)c(I)c1 | DFO2036 | F |
| OCCOCCN1CCN(C2=Nc3ccccc3Sc3ccccc32)CC1 | DFO2036 | F |

Prompt line: Please indicate how the test categorized O=C(c1ccc(F)cc1)C1CCN(CCn2c(=S)[nH]c3ccccc3c2=O)CC1 .
Response line: T

Prompt line: Input CCC(C(=O)OCCOCCN(CC)CC)c1ccccc1 (configuration not stated)
Response line: F

Prompt line: CCN(CC)CCOC(=O)C1(c2ccccc2)CCCC1 , same question.
Response line: F

Prompt line: And the next one, COc1cc([C@H]2Oc3cc([C@H]4Oc5cc(O)cc(O)c5C(=O)[C@@H]4O)ccc3O[C@@H]2CO)ccc1O ?
Response line: F

Prompt line: How about COc1ccc(C(=O)c2ccccc2O)c(O)c1 ?
Response line: F

Prompt line: Same read-out for NCc1ccccc1Sc1ccccc1CO ?
Response line: F

Prompt line: And then O=C(O)Cc1csc(-c2ccc(Cl)cc2)n1 , what is it?
Response line: F

Prompt line: # repeat for CCCN(CCc1cccs1)[C@H]1CCc2c(O)cccc2C1
Response line: T

Prompt line: Quick one: COc1cc(C(=S)N2CCOCC2)ccc1O
Response line: F

Prompt line: Would you kindly repeat that for Cc1cccc(C)c1NC(=O)CN1CCCC1 ?
Response line: F
